test system: Fibroblast; experiment: Multiplex assay against human fibroblast; assay type: toxicity, cell-based; conditions: 48 h, 1 µM, compound concentration 1 uM, replicate 1
Recorded Population Hoechst High Intensity Objects (%) by entry
Reply numerically in %, unit not repeated.

Sample records with Population Hoechst High Intensity Objects (%):
{"columns": ["COMPOUND", "UNIT_SYMBOL", "RECORDED_NUMBER"],
 "data": [
  ["CCCn1c(=O)c2[nH]c(-c3cnn(Cc4cccc(C(F)(F)F)c4)c3)nc2n(CC)c1=O", "%", 20],
  ["O=C(Nc1ccc(-c2ccnc(Nc3ccc(N4CCOCC4)cc3)n2)cc1)[C@@H]1CCCN1", "%", 9],
  ["O=C1NC(=O)C(c2cnc3ccccn23)=C1c1cn2c3c(cc(F)cc13)CN(C(=O)N1CCCCC1)CC2", "%", 6]
]}

Prompt line: Please tell me: Population Hoechst High Intensity Objects (%) of O=C1N/C(=N/c2ccccc2F)S/C1=C\c1ccc(C(=O)O)cc1 , system Fibroblast?
Response line: 19

Prompt line: // lookup Population Hoechst High Intensity Objects (%) | system=Fibroblast | key= C=C1/C(=C\C=C2/CCC[C@]3(C)[C@@H]([C@H](C)/C=C/[C@H](C)C(C)C)CC[C@@H]23)C[C@@H](O)C[C@@H]1O
Response line: 18

Prompt line: Item Cl.Oc1ccc2c3c1O[C@H]1c4[nH]c5c(c4C[C@@]4(O)[C@@H](C2)N(CC2CC2)CC[C@]314)C[C@@]1(O)[C@H]2Cc3ccc(O)c4c3[C@@]1(CCN2CC1CC1)[C@H]5O4 with Fibroblast - Population Hoechst High Intensity Objects (%)?
Response line: 16

Prompt line: Find Population Hoechst High Intensity Objects (%) (Fibroblast) for the entry O=C(Cc1ccc(-c2ccc(OCCN3CCOCC3)cc2)cn1)NCc1ccccc1
Response line: 14

Prompt line: Entry CCn1c(=O)c(-c2ccc(-c3cncs3)cc2Cl)cc2cnc(Nc3ccc(N4CCN(C)CC4)cc3)nc21 , system Fibroblast: what Population Hoechst High Intensity Objects (%) was measured?
Response line: 10

Prompt line: For Fibroblast, provide Population Hoechst High Intensity Objects (%) of COc1cc(N2CCN(C)CC2)ccc1Nc1ncc2c(n1)N(C)c1ccccc1C(=O)N2C please.
Response line: 14

Prompt line: Record lookup: for Fibroblast, what Population Hoechst High Intensity Objects (%) belongs to CN1C2CCC1CC(OC(c1ccc(F)cc1)c1ccc(F)cc1)C2.Cl (configuration not stated) ?
Response line: 13
